Test system: breast cancer cell line MX-1
Assay: MX-1 cell line proliferation assay (3-day)
Format: cell-based
Settings: Homo sapiens, MX1; MX-1 cells, 72 hours with compound, Cell Titer Glo; read-out: Cellular proliferation: EC50
pEC50: −log10 of the molar value.
parameterMeasured: pEC50

Consider the reported pEC50 for these molecules:
                                   molecule  readoutvalue
0  CCOc1cc(=O)n(C)cc1-c1cc(S(=O)(=O)CC)ccc1NC1CC1 [Example 373]          6.07
1  CCOc1cc(=O)n(C)cc1-c1cc(NS(=O)(=O)CC)ccc1OCC1CC1 [Example 381]          6.94

1. CCOc1cc(=O)n(C)cc1-c1cc(N(C)S(=O)(=O)Cc2ccccc2)ccc1Oc1ccc(F)cc1F [Example 420]
2. CCOc1cc(=O)n(C)cc1-c1cc(S(=O)(=O)N2CCc3ccccc32)ccc1OCC1CC1 [Example 397]
3. CCOc1cc(=O)n(C)cc1-c1cc(NS(=O)(=O)CC)ccc1OC1CCC(F)(F)CC1 [Example 385]
4. CCOc1cc(=O)n(C)cc1-c1cc(C(C)(C)S(=O)(=O)CC)ccc1Oc1ccc(F)cc1F [Example 380]
With regard to pEC50, arrange the entries in ascending order, please. The response must list the labels following the requested ordering. 1, 3, 2, 4
(1: 6.08, 3: 6.60, 2: 7.06, 4: 7.42)

A. CCOc1cc(=O)n(C)cc1-c1cc(NS(=O)(=O)CC)ccc1Oc1ccc(Cl)cc1F [Example 403]
B. CCOc1cc(=O)n(C)cc1-c1cc(NS(=O)(=O)CC)ccc1O[C@H]1CC[C@H](NC(=O)OC(C)(C)C)CC1 [Example 395]
Between these two entries, A and B , state which has the higher pEC50. Selection: enter the item's label. A
(A: 7.62, B: 6.32)

---

Target: first (BD1: amino acids K57-E168) bromodomain of BRD4 (Homo sapiens, UniProt O60885)
Construct: His-tagged first (BD1: amino acids K57-E168)
Assay: TR-FRET bromodomain binding assay, BRD4 BD1
Details: TR-FRET assay protocol (A-G, compound concentration range); Ki calculated from IC50, probe Kd and probe concentration; read-out: TR-FRET Binding Ki: BRD4 (BDI_K57-E168)
parameterMeasured: Ki (nM)

P. CCS(=O)(=O)Nc1ccc(Oc2ccc(F)cc2F)c(-c2cn(C)c(=O)cc2OC2CC3(C2)CN(C(=O)OC(C)(C)C)C3)c1 [Example 325]
Q. Cc1n[nH]c(C)c1-c1cc(=O)n(C)nc1-c1ccccc1Oc1ccccc1 [Example 115]
Of the pair P and Q , name the member with the lesser recorded Ki. Selection: enter the item's label. P
(P: 30.6 nM, Q: 11100 nM)

I. CCS(=O)(=O)Nc1cc(-c2ccc(=O)n(C)c2)c(OCC2CC2)cc1C [Example 366]
II. COc1cc(=O)n(C)nc1-c1cc(N)ccc1Oc1ccccc1 [Example 20]
Of the pair I and II , name the member with the lesser recorded Ki. Selection: enter the item's label. I
(I: 629 nM, II: 2700 nM)

---

Tested on: BxPC3FP5
Experiment: Proliferation panel assay: BxPC3FP5
Assay type: cell-based
Settings: 120 h; BxPC3FP5 (Pancreas); 5 days, Cell Titer Glo; read-out: Cellular Proliferation EC50
parameterMeasured: EC50 (nM)

In [3]: df
Out[3]:
                                   molecule  parametermeasured  unitstext  readoutvalue
0  Cn1cc(-c2cc(NS(C)(=O)=O)ccc2Oc2ccccc2)ccc1=O [Example 224]               EC50         nM           230
1  Cc1cc(-c2cc(NS(C)(=O)=O)ccc2Oc2ccccc2)c[nH]c1=O [Example 261]               EC50         nM           230

---

Biological target: first (BD1: amino acids K57-E168) bromodomain of BRD4 (Homo sapiens)
Construct: His-tagged first (BD1: amino acids K57-E168)
Experiment: TR-FRET bromodomain binding assay, BRD4 BD1
Conditions: TR-FRET assay protocol (A-G, compound concentration range); Ki calculated from IC50, probe Kd and probe concentration; read-out: TR-FRET Binding Ki: BRD4 (BDI_K57-E168)
parameterMeasured: Ki (nM)

I. CCOc1ccc(-c2cc(=O)n(C)nc2-c2ccccc2Oc2ccccc2)cc1F
II. CCNc1cc(=O)n(C)cc1-c1cc(NS(=O)(=O)CC)ccc1Oc1ccc(F)cc1F
III. Cc1ccc(-c2cc(=O)n(C)nc2-c2ccccc2Oc2ccccc2)cc1N
IV. CCS(=O)(=O)Nc1ccc(Oc2ccc(F)cc2F)c(-c2cn(C)c(=O)cc2OCC2CCN(C(=O)OC(C)(C)C)CC2)c1
I'd appreciate it if you sorted the entries above by their Ki, lowest to highest. The response must list the labels following the requested ordering. II, IV, III, I

---

Biological target: first (BD1: amino acids K57-E168) bromodomain of BRD4 (Homo sapiens, UniProt O60885)
Construct: His-tagged first (BD1: amino acids K57-E168)
Assay: TR-FRET bromodomain binding assay, BRD4 BD1
Conditions: TR-FRET assay protocol (A-G, compound concentration range); Ki calculated from IC50, probe Kd and probe concentration; read-out: TR-FRET Binding Ki: BRD4 (BDI_K57-E168)
parameterMeasured: Ki (nM)

P. Cn1nc(-c2ccccc2Oc2ccccc2)c(-c2ccc(CC#N)cc2)cc1=O [Example 94]
Q. CCS(=O)(=O)c1ccc(Oc2ccccc2C#CCO)c(-c2cn(C)c(=O)cc2Cl)c1 [Example 314]
Of the pair P and Q , name the member with the lesser recorded Ki. Selection: enter the item's label. P

---

Target: second (BD2: amino acids E352-E168) bromodomain of BRD4 (Homo sapiens, UniProt O60885)
Construct: protocol
Test: TR-FRET bromodomain binding assay, BRD4 BD2
Conditions: TR-FRET assay protocol (D, E or G) per compound; Ki calculated from IC50, probe Kd and probe concentration; read-out: TR-FRET Binding Ki: BRD4 (BDII_E352-M457)
pKi: −log10 of the molar value.
parameterMeasured: pKi

A. CCOc1cc(=O)n(C)cc1-c1cc(NS(=O)(=O)c2ccc3ccccc3c2)ccc1Oc1ccc(F)cc1F [Example 418]
B. CCOc1cc(=O)n(C)cc1-c1cc(NS(=O)(=O)CC)ccc1Oc1ccc(F)cc1 [Example 396]
C. CCOc1cc(=O)n(C)cc1-c1cc(S(=O)(=O)N2CCc3ccccc32)ccc1OCC1CC1 [Example 397]
D. CCOc1cc(=O)n(C)cc1-c1cc(NS(=O)(=O)CC)ccc1Oc1cc(F)c(F)c(F)c1 [Example 402]
Highest pKi first, then in falling order down to the smallest. The response must list the labels following the requested ordering. B, C, D, A

---

Target: second (BD2: amino acids E352-E168) bromodomain of BRD4 (Homo sapiens)
Construct: protocol
Test: TR-FRET bromodomain binding assay, BRD4 BD2
Conditions: TR-FRET assay protocol (A-G, compound concentration range); Ki calculated from IC50, probe Kd and probe concentration; read-out: TR-FRET Binding Ki: BRD4 (BDII_E352-M457)
pKi: −log10 of the molar value.
parameterMeasured: pKi

P. CCS(=O)(=O)Nc1ccc(Oc2ccc(F)cc2F)c(-c2cn(C)c(=O)cc2OCC2CCN(C(=O)OC(C)(C)C)CC2)c1 [Example 324]
Q. CC(C)C(O)c1ccc(-c2cc(=O)n(C)nc2-c2ccccc2Oc2ccccc2)cc1 (stereo not shown) [Example 73]
R. Cn1nc(-c2cc(C(=O)O)ccc2Oc2ccccc2)ccc1=O [Example 15]
Highest pKi first, then in falling order down to the smallest. The response must list the labels following the requested ordering. P, Q, R

---

Target: first (BD1: amino acids K57-E168) bromodomain of BRD4 (Homo sapiens)
Construct: His-tagged first (BD1: amino acids K57-E168)
Experiment: TR-FRET bromodomain binding assay, BRD4 BD1
Conditions: TR-FRET assay protocol (A-G, compound concentration range); Ki calculated from IC50, probe Kd and probe concentration; read-out: TR-FRET Binding Ki: BRD4 (BDI_K57-E168)
parameterMeasured: Ki (nM)

Consider the reported Ki for these molecules:
>>> print(df.to_string())
                                 smilescode  parametermeasured  readoutvalue
0  Cn1cc(-c2cc(NS(C)(=O)=O)ccc2Oc2cccc(Cl)c2)ccc1=O                 Ki           115
1  CC(C)CCn1cc(-c2cc(=O)n(C)nc2-c2ccccc2Oc2ccccc2)cn1                 Ki           520
2  Cn1nc(-c2ccccc2Oc2ccccc2)c(-c2ccc3c(c2)OCCO3)cc1=O                 Ki           782
3  CCOc1cc(=O)n(C)cc1-c1cc(NC(=O)c2ccc(N(CC)CC)cc2)ccc1Oc1ccc(F)cc1F                 Ki           233
4  Cn1nc(-c2cc([N+](=O)[O-])ccc2Oc2ccccc2)ccc1=O                 Ki         10500
5  Cn1cc(-c2cc(NS(C)(=O)=O)ccc2Oc2ccc(F)cc2)ccc1=O                 Ki          27.8
6  CN1CCN(Cc2ccc(-c3cc(=O)n(C)nc3-c3cc(NS(C)(=O)=O)ccc3Oc3ccccc3)cc2)CC1                 Ki          7.49
7  Cn1cc(-c2cc(NS(C)(=O)=O)ccc2Oc2ccc(F)cc2F)ccc1=O                 Ki          28.2

P. CC(=O)N1CCC(c2cc(=O)n(C)nc2-c2ccccc2Oc2ccccc2)CC1
Q. Cn1cc(-c2cc(NS(C)(=O)=O)ccc2OC2CCCC2)ccc1=O
R. CCCOc1cc(=O)n(C)cc1-c1cc(NS(=O)(=O)CC)ccc1Oc1ccc(F)cc1F
With regard to Ki, arrange the entries in ascending order, please. The response must list the labels following the requested ordering. R, Q, P
(R: 4.97 nM, Q: 156 nM, P: 8100 nM)
